Tested on: Plasmodium berghei
Assay: Luciferase/luciferin-expressing antifolate-resistant parasites were used to infect a culture of HepG2 cells that were pre-incubated with compounds. Infected hepatocytes emit light due to the luciferase reaction. Assay results are presented as the percent inhibition of light emission compared to control. […]
Type: functional
Settings: sporozoite, read-out: LUCIFERASE INFECTION ASSAY - IC90
test.readout: IC90 (µM)
All answers are understood in µM, so give the number only.

Provide value of IC90 for this record tested with Plasmodium berghei: `C/N=c1\scc(-c2ccccc2OC)n1/N=C/c1ccc[nH]1`
0.0612

Any idea what IC90 came out for `Fc1ccc(-c2nc(CSc3nc(NC4CC4)c4ccccc4n3)cs2)cc1` on Plasmodium berghei?
4.9

* * *

Consider the following molecules; for each one, report its IC90.
System: Plasmodium berghei
Experiment: Luciferase/luciferin-expressing antifolate-resistant parasites were used to infect a culture of HepG2 cells that were pre-incubated with compounds. Infected hepatocytes emit light due to the luciferase reaction. Assay results are presented as the percent inhibition of light emission compared to control. […]
Assay type: functional
Settings: sporozoite, read-out: LUCIFERASE INFECTION ASSAY - IC90

Given the entry `O=C(COc1ccccc1SCc1ccc(Cl)cc1)NNC(=O)c1ccc(Cl)cc1` , report its measured IC90.
> 7.15 µM

Data request, read-out IC90, for `O=C(COc1ccc([N+](=O)[O-])c2cccnc12)Nc1ccc(C(F)(F)F)cc1`
> 10 µM

Fill in: IC90 of `Cc1nnsc1C(=O)Nc1nc(C(F)(F)F)c(-c2ccccc2)s1` is ___
> 8.91 µM

* * *

Test system: Plasmodium berghei
Experiment: Luciferase/luciferin-expressing antifolate-resistant parasites were used to infect a culture of HepG2 cells that were pre-incubated with compounds. Infected hepatocytes emit light due to the luciferase reaction. Assay results are presented as the percent inhibition of light emission compared to control. […]
Type: functional
Details: sporozoite, read-out: LUCIFERASE INFECTION ASSAY - IC90
Provide the reported IC90 of each item.

Sample CC1CCCN(C(=O)COc2ccc(-c3nc4ccccc4s3)cc2)C1 (stereo not given) — what was its IC90?
> 10 µM

Find the recorded IC90 belonging to `Cn1cc(-c2cn3c(-c4cccc(OC(F)(F)F)c4)cnc3cn2)cn1` and report it.
> 9.18 µM

Which IC90 reading was recorded for the molecule `Clc1ccc(Nc2nccc3nc(-c4ccccc4)[nH]c23)cc1` ?
> 10 µM

Look up IC90 for this molecule: `O=S(=O)(c1ccccc1NCc1ccnc(N2CCCC2)c1)C(F)(F)F`
> 10 µM

Which IC90 value belongs to `N=C(NOC(=O)Nc1ccc(OC(F)(F)F)cc1)c1cc(Cl)c(N)c(Cl)c1` ?
> 7.8 µM

* * *

Kindly supply the reported IC90 values for the records listed here.
System: Plasmodium berghei
Assay: Luciferase/luciferin-expressing antifolate-resistant parasites were used to infect a culture of HepG2 cells that were pre-incubated with compounds. Infected hepatocytes emit light due to the luciferase reaction. Assay results are presented as the percent inhibition of light emission compared to control. […]
Assay type: functional
Conditions: sporozoite, read-out: LUCIFERASE INFECTION ASSAY - IC90

Give its IC90 value. Item: Cc1cc(C(=O)OCC(=O)NC(C)c2ccccc2)c(C)n1-c1ccccc1 (configuration not stated)
> 10 µM

Record request: IC90 value, item `O=C(NCCO)c1cccc(-c2ccc3ncc(-c4cccnc4)n3n2)c1`
3.93 µM

# query: IC90 of entry `CC(C)(C)c1ccc(NC(=O)c2nc(-c3ccccc3)n(-c3ccccc3)n2)cc1`
> 10 µM

Quick one: IC90 of `CC(C)Cc1nc2oc3c(NCCO)ncnc3c2c2c1CCCC2` ?
> 9.69 µM

Item `Cc1[nH]c(=O)c(C#N)cc1C(=O)CSc1ccc(C(C)(C)C)cc1` has what recorded IC90?
> 9.69 µM

Could you tell me which IC90 is on file for `CCOc1ccc(/C=C/c2ccc3c(Cl)cc(Cl)c(O)c3n2)cc1OC` ?
> 10 µM

Suppose we examine the compound `O=c1[nH]c2ccc(-c3csc(Nc4ccc(Cl)cc4)n3)cc2o1` ; what IC90 value has been reported?
> 10 µM

Which IC90 value belongs to `CCCn1nc(C(=O)Nc2ccccc2N2CCc3ccccc3C2)ccc1=O` ?
> 10 µM

Any idea what its IC90 is? The compound is `COc1ccc(C2=NN=C/C2=N\Nc2ccccc2)cc1`
3.89 µM

Which IC90 is listed for `Cc1cc(C(=O)COn2nnc3ccc(S(=O)(=O)N4CCOCC4)cc32)c(C)n1C` ?
> 10 µM

GET /values?readout=IC90&item= `CC(C)(C)c1ccc(OCC(=N)NC(=O)c2ccc(OC(F)(F)F)cc2)cc1`
> 8.37 µM

What value of IC90 has been recorded for this entry: CC(C(=O)Nc1ccc(O)cc1)c1ccc2c(c1)[nH]c1ccc(Cl)cc12 (configuration not stated)
> 9.05 µM

Look at this compound and give its reported IC90. `Brc1ccc(-c2ccc(CN3CCNCC3)s2)cc1`
> 10 µM

For `COc1ccc(S(=O)(=O)Nc2ccccc2Sc2ncnc3scc(C)c23)cc1` , what is its reported IC90?
> 7.44 µM

IC90 for `C=c1onc(-c2c(F)cccc2Cl)c1=C1NC(c2cc(C(F)(F)F)cc(C(F)(F)F)c2)=NO1` ?
> 6.71 µM

Quick one: IC90 for `FC(F)(F)c1cccc(-c2nc3ccnc(Nc4ccccc4)c3[nH]2)c1` ?
> 10 µM

Look up IC90: `Cc1nn(CC(=O)Nc2cccc(Cl)c2)c(C)c1Oc1ccccc1`
> 9.27 µM

* * *

Test system: Plasmodium berghei
Assay: Luciferase/luciferin-expressing antifolate-resistant parasites were used to infect a culture of HepG2 cells that were pre-incubated with compounds. Infected hepatocytes emit light due to the luciferase reaction. Assay results are presented as the percent inhibition of light emission compared to control. […]
Type: functional
Conditions: sporozoite, read-out: LUCIFERASE INFECTION ASSAY - IC90
test.readout: IC90

Entry under review: `CS(=O)(=O)c1ccc(CN2CCN3C(C(=O)Nc4cccc(C(F)(F)F)c4)=COC3=NC2=O)cc1` . Reported IC90?
> 10 µM

Looking for the measured IC90 of `COc1ccc(NS(=O)(=O)c2cc(NC(=O)c3cccc(OC(F)F)c3)ccc2N2CCCCC2)cc1` , can you help?
> 10 µM

Fill blank: measured IC90 of the compound CCn1c2ccccc2c2cc(NC(=O)C3CCCN(c4ncccn4)C3)ccc21 (stereo unspecified) is ____.
2.28 µM

I would be grateful if you could share the reported IC90 for `Cc1nc(-c2ccc(F)cc2)sc1C(=O)N1CCc2sccc2C1` .
> 10 µM

Given the entry `Cn1c(=O)/c(=C\c2cn(-c3ccccc3)nc2-c2ccccc2)s/c1=C\C(=O)C(C)(C)C` , report its measured IC90.
> 10 µM

Fill in the blank: the reported IC90 of `Fc1cccc(-c2cnc3cnc(-c4ccncc4)cn23)c1` is ____.
> 11.4 µM

Which IC90 reading was recorded for the compound C=CCNC(=S)N1N=C2/C(=C/c3ccc(OCC)cc3)CCCC2C1c1ccc(OCC)cc1 (stereo unspecified) ?
> 10 µM

Any idea what its IC90 is? The compound is `COc1ccc(OC)c(CN2CCN(c3nn4cc(-c5ccccc5)nc4s3)CC2)c1`
> 10 µM

I'd like to know its IC90. The compound in question is `Cc1ccc(Cn2nc(C)c(/C=C/C(=O)N3CCN(S(=O)(=O)c4cccs4)CC3)c2C)cc1`
> 10 µM

Given the compound O=C(CSc1cccc[n+]1[O-])N1N=C2/C(=C/c3ccccc3)CCCC2C1c1ccccc1 (stereo unspecified) , what is its reported IC90?
6.17 µM

Sample `COc1ccccc1OCCNC(=O)c1cc(C2CC2)nc2c1cnn2C(C)C` — what was its IC90?
> 10 µM

What value of IC90 has been recorded for this entry: COCC(C)n1c(C)cc(C(=O)CSc2ccc(NC(C)=O)cc2)c1C (stereo unspecified)
> 10 µM

For the compound shown here, `COc1ccc(/C=C(\C#N)c2n[nH]c(=O)c3ccccc23)cc1` , give the reported IC90.
> 10 µM

So what's the measured IC90 for this one? `Cc1nn(-c2ccccc2)c(Cl)c1C(=O)N1CCN(C(c2ccccc2)c2ccccc2)CC1`
> 10 µM

I would be grateful if you could share the reported IC90 for `CCOC(=O)c1c[nH]nc1S(=O)(=O)Nc1ccc[nH]c1=O` .
> 10 µM

Name the reported IC90 value associated with the compound OC(Cc1ccccc1)(c1ccccc1)c1ccccc1/N=C/c1ccc(Cl)c(Cl)c1 (stereo unspecified)
> 7.39 µM

Consider the compound shown here: `O=C1Nc2ccccc2/C1=C/c1cccn1-c1ccc(C(F)(F)F)cc1` What is its recorded IC90?
> 9.31 µM

Give the measured IC90 of CC(Oc1ccc(C#N)cc1)C(=O)Nc1nc(-c2ccccn2)cs1 (stereo unspecified) .
3.36 µM

Could you tell me which IC90 is on file for `O=C(c1cn(-c2ccccc2)nc1-c1cccs1)N1c2ccccc2CCc2ccccc21` ?
> 10 µM

Given the compound `Cc1ccc(C(C)C)cc1OS(=O)(=O)c1ccc(S(=O)(=O)N(C)C)cc1[N+](=O)[O-]` , what is its reported IC90?
> 10 µM

Tell me the measured IC90 of `c1ccc(-c2nn(-c3ccccc3)cc2CSc2nncs2)cc1` , please.
> 10 µM

Origin of measurements: ChEMBL document CHEMBL4483862
